# target under test: TR alpha-LBD (Homo sapiens)
# Construct: TR alpha-LBD (0.4 nM final concentration) or TR beta-LBD (1.0 nM final concentration) was added
# Sequence (P10827 163-410 isoform P10827-2 limits assumed, other chains not shown): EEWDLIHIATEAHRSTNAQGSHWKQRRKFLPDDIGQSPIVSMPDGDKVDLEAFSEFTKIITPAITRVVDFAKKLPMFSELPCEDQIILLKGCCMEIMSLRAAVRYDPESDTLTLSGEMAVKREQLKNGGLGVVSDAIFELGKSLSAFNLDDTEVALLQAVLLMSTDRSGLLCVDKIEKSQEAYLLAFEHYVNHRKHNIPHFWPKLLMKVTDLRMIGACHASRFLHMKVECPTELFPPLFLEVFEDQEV
# test description: LanthaScreen TR-FRET Thyroid Receptor alpha Coactivator Assay
# experimental context: TR-FRET coactivator recruitment, 2 hour incubation at room temperature; run in duplicate multiple times, average data reported; read-out: EC50 THRα-FRET
Consider the following compounds and their measured EC50 readings.
readout name: EC50 (nM)

Cn1nc(Oc2c(Cl)cc(NC(=O)c3noc(=O)[nH]3)cc2Cl)c2ccccc2c1=O: 40.5
O=C(Nc1cc(Cl)c(Oc2n[nH]c(=O)c3ccccc23)c(Cl)c1)c1noc(=O)[nH]1: 492
